test system: Pseudomonas aeruginosa PAO1; assay: ≥ marks a high value that may be exact or a test limit, other limits are often not marked, values filed in µg/mL are converted to µM
quantity-kind: MIC

May I ask what MIC has been recorded for CC[C@H](C)[C@H](NC(=O)[C@H](CCCCN)NC(=O)[C@H](CCC(N)=O)NC(=O)[C@@H](NC(=O)[C@@H](NC(=O)[C@H](CCCCN)NC(=O)[C@H](CCCN=C(N)N)NC(=O)[C@H](Cc1ccccc1)NC(=O)CN)[C@@H](C)CC)C(C)C)C(=O)N[C@@H](CCCN=C(N)N)C(=O)N[C@@H](CC(=O)O)C(=O)N[C@@H](Cc1ccccc1)C(=O)N[C@@H](CC(C)C)C(=O)N[C@@H](CCCN=C(N)N)C(=O)N[C@@H](CC(N)=O)C(=O)N[C@@H](CC(C)C)C(=O)N[C@H](C(N)=O)C(C)C ?
> 50 µM

---

What follows is a collection of MIC values obtained with Escherichia coli ATCC 25922.
Dear colleague, please return just the value in µM, with no unit written.

May I ask what MIC has been recorded for CC(C)[C@H](NC(=O)[C@H](CCCCN)NC(=O)[C@H](C)NC(=O)[C@@H](NC(=O)[C@@H](NC(=O)[C@H](CCCN=C(N)N)NC(=O)[C@H](CCCN=C(N)N)NC(=O)[C@H](Cc1c[nH]c2ccccc12)NC(=O)[C@H](Cc1c[nH]c2ccccc12)NC(=O)CN)[C@@H](C)O)C(C)C)C(=O)N[C@@H](CCCN=C(N)N)C(=O)N[C@@H](C)C(N)=O ?
6.3

What would you report for CC[C@H](C)[C@H](NC(=O)[C@H](CCCN=C(N)N)NC(=O)[C@H](CCC(N)=O)NC(=O)[C@H](CO)NC(=O)[C@@H](NC(=O)[C@H](CCCN=C(N)N)NC(=O)[C@H](CCCCN)NC(=O)[C@@H](N)Cc1ccccc1)[C@@H](C)CC)C(=O)N[C@@H](CCCCN)C(=O)N[C@@H](CC(=O)O)C(=O)N[C@@H](Cc1ccccc1)C(=O)N[C@@H](CC(C)C)C(=O)N[C@@H](CCCN=C(N)N)C(=O)O ?
5

What would you report for CC(C)C[C@H](NC(=O)[C@H](CC(C)C)NC(=O)[C@H](CCCCN)NC(=O)CNC(=O)[C@H](CC(C)C)NC(=O)[C@H](CC(C)C)NC(=O)[C@H](CO)NC(=O)[C@H](CC(C)C)NC(=O)[C@H](C)NC(=O)[C@H](CO)NC(=O)[C@H](CC(C)C)NC(=O)[C@H](CC(C)C)NC(=O)CN)C(N)=O ?
3.1

What would you report for CC[C@H](C)[C@H](NC(=O)[C@@H](NC(=O)[C@H](CS)NC(=O)[C@@H](NC(=O)[C@H](CCCN=C(N)N)NC(=O)[C@H](CS)NC(=O)[C@H](CCCN=C(N)N)NC(=O)[C@H](CC(C)C)NC(=O)[C@H](CCC(N)=O)NC(=O)[C@@H](N)C(C)C)C(C)C)C(C)C)C(=O)N[C@@H](CCCN=C(N)N)C(=O)N[C@@H](CCCCN)C(=O)O ?
21.7

---

system: Bacillus subtilis KCTC 3068
Could you please mark t for values of MIC below 7 µM and f for values at or above it?

Please let me know if CC[C@H](C)[C@H](NC(=O)[C@H](CCCN=C(N)N)NC(=O)CN)C(=O)N[C@@H](CCCCN)C(=O)N[C@@H](CCCN=C(N)N)C(=O)N[C@H](C(=O)N[C@@H](CCCN=C(N)N)C(=O)N[C@@H](CCCCN)C(=O)N[C@@H](CCCCN)C(=O)N[C@H](C(=O)N[C@@H](CCCCN)C(=O)N[C@@H](CCCCN)C(=O)N[C@@H](CC(C)C)C(=O)N[C@H](C(=O)N[C@@H](CCCCN)C(=O)N[C@@H](CCCCN)C(=O)N[C@@H](CC(C)C)C(=O)N[C@@H](CO)C(N)=O)[C@@H](C)CC)[C@@H](C)CC)[C@@H](C)CC [GRIKRIRKKIKKLIKKLS] shows MIC below 7 µM.
t

What would you report for CC[C@H](C)[C@@H]1NC(=O)[C@H](CCCCN)NC(=O)[C@@H](NC(=O)[C@H](CC(C)C)NC(=O)[C@@H](N)CCCCN)CSSC[C@@H](C(=O)N[C@@H](CCCCN)C(=O)O)NC(=O)[C@H](C(C)C)NC(=O)[C@H](CCCCN)NC(=O)[C@H]([C@@H](C)CC)NC(=O)[C@H](C(C)C)NC(=O)[C@H](C(C)C)NC1=O [KLCKIVVIKVCK] ?
f

What would you report for CC[C@H](C)[C@H](NC(=O)[C@H](CS)NC(=O)[C@H](Cc1cnc[nH]1)NC(=O)[C@H](C)NC(=O)[C@H](C)N)C(=O)N[C@H](C(=O)N[C@@H](CC(C)C)C(=O)N[C@@H](Cc1cnc[nH]1)C(=O)N[C@@H](Cc1cnc[nH]1)C(=O)N[C@@H](CC(N)=O)C(N)=O)C(C)C [AAHCIVLHHN] ?
f

What would you report for CC(C)C[C@H](NC(=O)[C@H](CCCCN)NC(=O)[C@H](CCCCN)NC(=O)[C@H](Cc1c[nH]c2ccccc12)NC(=O)[C@H](CC(C)C)NC(=O)[C@H](CCCCN)NC(=O)[C@H](CCCCN)NC(=O)[C@H](Cc1c[nH]c2ccccc12)NC(=O)[C@H](CCCCN)NC(=O)[C@H](CCCCN)NC(=O)[C@H](CCCN=C(N)N)NC(=O)[C@H](Cc1c[nH]c2ccccc12)NC(=O)[C@H](CCCN=C(N)N)NC(=O)[C@H](CCCCN)NC(=O)[C@H](Cc1c[nH]c2ccccc12)NC(=O)[C@H](CCCN=C(N)N)NC(=O)CN)C(=O)N[C@@H](CO)C(N)=O [GRWKRWRKKWKKLWKKLS] ?
t

What would you report for CC[C@H](C)[C@H](NC(=O)[C@H](CCCCN)NC(=O)[C@H](Cc1c[nH]c2ccccc12)NC(=O)[C@@H](N)CCCN=C(N)N)C(=O)N[C@@H](Cc1ccccc1)C(=O)N[C@@H](CCCCN)C(=O)N[C@@H](CCCCN)C(=O)N[C@@H](C)C(=O)N[C@@H](C)C(=O)N[C@@H](CCCCN)C(=O)N[C@@H](CCCCN)C(=O)N[C@@H](C)C(N)=O [RWKIFKKAAKKA] ?
f

What would you report for CC(C)C[C@H](NC(=O)[C@H](CC(C)C)NC(=O)[C@H](CCCCN)NC(=O)[C@H](CC(C)C)NC(=O)[C@H](CC(C)C)NC(=O)[C@H](CCCCN)NC(=O)[C@H](CCCCN)NC(=O)[C@H](CC(C)C)NC(=O)[C@H](CC(C)C)NC(=O)[C@H](CCCCN)NC(=O)[C@H](CCCCN)NC(=O)[C@H](Cc1c[nH]c2ccccc12)NC(=O)[C@@H](N)CCCCN)C(N)=O [KWKKLLKKLLKLL] ?
t

What would you report for CC[C@H](C)[C@H](NC(=O)[C@H](CCCN=C(N)N)NC(=O)[C@H](CCCN=C(N)N)NC(=O)[C@@H](NC(=O)[C@@H](NC(=O)[C@H](CCCN=C(N)N)NC(=O)[C@H](CCCCN)NC(=O)[C@@H](N)Cc1c[nH]c2ccccc12)[C@@H](C)CC)C(C)C)C(=O)N[C@@H](Cc1c[nH]c2ccccc12)C(=O)N[C@@H](CCCN=C(N)N)C(=O)N[C@@H](Cc1c[nH]c2ccccc12)C(=O)N[C@@H](CC(C)C)C(=O)N[C@@H](CCCN=C(N)N)C(N)=O [WKRIVRRIWRWLR] ?
t

What would you report for CC[C@H](C)[C@H](NC(=O)[C@H](CCCCN)NC(=O)[C@H](CCCCN)NC(=O)[C@H](CC(C)C)NC(=O)[C@@H](N)CCCCN)C(=O)N[C@@H](Cc1c[nH]c2ccccc12)C(=O)N[C@@H](Cc1c[nH]c2ccccc12)C(=O)N[C@H](C(=O)N[C@@H](CCCCN)C(=O)N[C@H](C(=O)N[C@@H](CCCCN)C(=O)N[C@@H](CCCCN)C(N)=O)C(C)C)[C@@H](C)CC [KLKKIWWIKVKK] ?
f

What would you report for CC[C@H](C)[C@H](NC(=O)[C@H](CCCCN)NC(=O)[C@H](Cc1c[nH]c2ccccc12)NC(=O)[C@@H](N)CCCN=C(N)N)C(=O)N[C@@H](Cc1ccccc1)C(=O)N[C@@H](CCCCN)C(=O)N[C@@H](CCCCN)C(=O)N[C@@H](C)C(=O)N[C@@H](C)C(=O)N[C@@H](CCCCN)C(=O)N[C@@H](CCCCN)C(=O)NCC(N)=O [RWKIFKKAAKKG] ?
f

---

system: Salmonella enterica subsp. enterica serovar Typhimurium C77-31
quantity-kind: MIC (µM)
Dear colleague, please return just the value in µM, with no unit written.

May I ask what MIC has been recorded for NC(=O)[C@H](Cc1ccccc1)NC(=O)[C@H](CCCN=C(N)N)NC(=O)[C@H](Cc1ccccc1)NC(=O)[C@H](CCCN=C(N)N)NC(=O)[C@H](CS)NC(=O)[C@H](Cc1ccccc1)NC(=O)[C@H](CCCN=C(N)N)NC(=O)[C@H](CCCN=C(N)N)NC(=O)[C@H](CCCN=C(N)N)NC(=O)[C@H](CS)NC(=O)[C@H](CCCN=C(N)N)NC(=O)[C@H](Cc1ccccc1)NC(=O)[C@H](CCCN=C(N)N)NC(=O)[C@@H](N)Cc1ccccc1 ?
2

What would you report for CC[C@H](C)[C@H](NC(=O)[C@H](CCCN=C(N)N)NC(=O)[C@H](C)NC(=O)[C@H](C)N)C(=O)N[C@H](C(=O)N[C@@H](CC(C)C)C(=O)N[C@@H](CCCN=C(N)N)C(=O)N1CCC[C@H]1C(=O)N[C@@H](CCCN=C(N)N)C(=O)N[C@@H](Cc1ccccc1)C(=O)N[C@@H](CCCN=C(N)N)C(N)=O)[C@@H](C)CC ?
16

What would you report for CC[C@H](C)[C@H](NC(=O)[C@H](CCCN=C(N)N)NC(=O)[C@H](C)NC(=O)[C@H](C)N)C(=O)N[C@H](C(=O)N[C@@H](CC(C)C)C(=O)N[C@@H](CCCN=C(N)N)C(=O)N[C@@H](Cc1ccc(O)cc1)C(=O)N[C@@H](CCCN=C(N)N)C(=O)N[C@@H](Cc1ccccc1)C(=O)N[C@@H](CCCN=C(N)N)C(N)=O)[C@@H](C)CC ?
4
